B1: C1orf137 (parent)
chain: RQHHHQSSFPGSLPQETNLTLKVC

Variants of: B1
method-description: protein stability index of a GFP-peptide fusion (GPS, HEK-293T) (PSI 1-6); higher = more stable;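 further: lentivirally expressed fusions sorted by FACS into six bins by GFP to DsRed ratio, PSI derived from sequencing read proportions per bin multiplied by bin number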
experimental-setup: c terminus: a fixed tail appended
Label yes (1) when protein stability index is at or above 3; anything below gets no (0).

Prompt: Does the reported protein stability index for RQHHHQSSFPGSLPQETNKTLKVC fall at or above the 3 mark?
Completion: yes (1)

Prompt: Try this variant next: RQHHHQSSFPGSLPQETNLTLAVC
Completion: no (0)

Prompt: Also need RQHHHQSSFPGSLPQLTNLTLKVC , thanks.
Completion: no (0)

Prompt: Now consider RQHHHQSSFPGLLPQETNLTLKVC and answer again.
Completion: no (0)

Prompt: Entry to check: RQYHHQSSFPGSLPQETNLTLKVC
Completion: no (0)

Prompt: Please do the same for RQHHHQSSFPGSLPQETNLTLKTC as well.
Completion: yes (1)

Prompt: Next record, please: RQHHFQSSFPGSLPQETNLTLKVC
Completion: no (0)

Prompt: Try this variant next: RQHHHQSSFPGSLPQECNLTLKVC
Completion: no (0)

Prompt: Okay, and RQHGHQSSFPGSLPQETNLTLKVC ?
Completion: yes (1)

Prompt: Follow-up item: RQHHHQSDFPGSLPQETNLTLKVC
Completion: no (0)

Prompt: Now the variant DQHHHQSSFPGSLPQETNLTLKVC
Completion: yes (1)

Prompt: Item: RQHHHQSSFPGSLPQETNLTLKVT
Completion: yes (1)

Prompt: Request: RWHHHQSSFPGSLPQETNLTLKVC
Completion: no (0)

Prompt: Same question, RQHHHQSSFPGSLPQEENLTLKVC this time
Completion: yes (1)

Prompt: // repeat for RQHHWQSSFPGSLPQETNLTLKVC and report
Completion: no (0)

Prompt: And RQHHHQSSFPGSLPKETNLTLKVC ?
Completion: no (0)

Prompt: Also need RQHHHQSSFPGSLPQRTNLTLKVC , thanks.
Completion: no (0)

Prompt: Query RQHHHQSSFPGSLPQNTNLTLKVC next
Completion: no (0)

Prompt: Consider next the variant RQDHHQSSFPGSLPQETNLTLKVC in the same way.
Completion: no (0)
